tested on: Candidatus Liberibacter solanacearum in potato hairy roots; test: relative CLso titer (% of untreated control); higher = less inhibition of bacterial titer; settings: 10 µM; 72 h
Threshold check on relative CLso titer: at or above 60% gives YES, strictly below gives NO.

| compound | classLabel |
| --- | --- |
| Cc1cc(-c2ccccc2)nnc1NCCN1CCOCC1 | YES |
| Cn1c(=O)c2c(ncn2C)n(C)c1=O | NO |
| C[C@]12CC[C@@H]3c4ccc(OC(=O)c5ccccc5)cc4CC[C@H]3[C@@H]1CC[C@@H]2O | YES |
| O=S(=O)(O)CCS | YES |
| O=C(O)CCC(=O)Nc1ccc(S(=O)(=O)Nc2nccs2)cc1 | YES |
| C#C[C@]1(OC(C)=O)CC[C@H]2[C@@H]3CCC4=CC(=NO)CC[C@@H]4[C@H]3CC[C@@]21CC (mixture of isomers) | YES |
| CC12CC3CC(C)(C1)CC(N)(C3)C2 | YES |
| CN1CCN(CC(=O)N2c3ccccc3C(=O)Nc3cccnc32)CC1 | NO |
| CC1=C(/C=C/C(C)=C/C=C/C(C)=C\C(=O)O)C(C)(C)CCC1 | YES |
| O=C(O)c1cc(=O)c2c(OCC(O)COc3cccc4oc(C(=O)O)cc(=O)c34)cccc2o1 | NO |
| CC1(C)O[C@@H]2C[C@H]3[C@@H]4C[C@H](F)C5=CC(=O)C=C[C@]5(C)[C@H]4[C@@H](O)C[C@]3(C)[C@]2(C(=O)CO)O1 | YES |
| C[N+](C)(C)CCOC(N)=O | NO |
| O=C(O)CCC(=O)OC[C@@H](NC(=O)C(Cl)Cl)[C@H](O)c1ccc([N+](=O)[O-])cc1 | NO |
| COc1ccc([C@H]2COc3c(ccc(O)c3OC)C2)c(OC)c1O | NO |
| Cn1nnnc1SCC1=C(C(=O)O)N2C(=O)[C@@H](NC(=O)[C@H](O)c3ccccc3)[C@H]2SC1 | YES |
| Nc1cccc2c1CN(C1CCC(=O)NC1=O)C2=O (configuration not stated) | YES |
| Cn1nnnc1SCC1=C(C(=O)O)N2C(=O)[C@@H](NC(=O)[C@H](OC=O)c3ccccc3)[C@H]2SC1 | YES |
| CNCCCN1c2ccccc2CCc2ccccc21 | YES |
| CN(C)CCOC(c1ccccc1)c1ccccc1 | NO |
| CCCN(CCC)C(=O)C(CCC(=O)O)NC(=O)c1ccccc1 (configuration not stated) | NO |
| CCN(CCCc1ccccc1)CCCc1ccccc1 | YES |
| C[C@H]1O[C@H](O[C@H]2[C@H](O)[C@@H](O)[C@@H](O[C@H]3[C@H](O)[C@@H](O)C(O)O[C@@H]3CO)O[C@@H]2CO)[C@H](O)[C@@H](O)[C@@H]1N[C@H]1C=C(CO)[C@@H](O)[C@H](O)[C@H]1O (some centres not stated) | YES |
| NCCCC[C@H](N[C@@H](CCc1ccccc1)C(=O)O)C(=O)N1CCC[C@H]1C(=O)O | YES |
| CC1=C(/C=C/C(C)=C/C=C/C(C)=C/CO)C(C)(C)CCC1 | YES |
| CN(C)CCOC(c1ccccc1)c1ccccc1.Cn1c(=O)c2[nH]c(Cl)nc2n(C)c1=O | YES |
| O=C(N[C@H](CO)[C@H](O)c1ccc([N+](=O)[O-])cc1)C(Cl)Cl | NO |
| CCN(CC)C(=O)N1CCN(C)CC1 | YES |
| C[C@@H]1C[C@H]2[C@@H]3CCC4=CC(=O)C=C[C@]4(C)[C@@]3(F)[C@@H](O)C[C@]2(C)[C@@]1(O)C(=O)CO | YES |
| CN(C)CCCN1c2ccccc2Sc2ccc(Cl)cc21 | NO |
| CCCCOc1ccc(C(=O)CCN2CCCCC2)cc1 | YES |
| COc1ccc(NS(=O)(=O)c2ccc(N)cc2)nn1 | YES |
| N=C(N)NC(=O)c1nc(Cl)c(N)nc1N | NO |
| C[C@@H](O[C@H]1OCCN(Cc2n[nH]c(=O)[nH]2)[C@H]1c1ccc(F)cc1)c1cc(C(F)(F)F)cc(C(F)(F)F)c1 | YES |
| Oc1ccc(Cl)c2cccnc12 | NO |
| CCN(CCCCOC(=O)c1ccc(OC)c(OC)c1)C(C)Cc1ccc(OC)cc1 (configuration not stated) | YES |
| NS(=O)(=O)c1cc2c(cc1Cl)N=CNS2(=O)=O | NO |
| O=C(Oc1ccccc1C(=O)O)c1ccccc1O | YES |
| C=C1CC[C@H](O)C/C1=C/C=C1\CCC[C@]2(C)[C@@H]([C@H](C)/C=C/[C@H](C)C(C)C)CC[C@@H]12 | YES |
| Nc1ccc(S(=O)(=O)c2ccc(N)cc2)cc1 | YES |
| CN(C)CC[C@@H](c1ccc(Cl)cc1)c1ccccn1 | NO |
